Values of pIC50 for KIF18A (Homo sapiens (Human), UniProt Q8NI77), collected from a number of published sources:
pIC50: −log10 of the molar value.

Example cases with answers are listed next.
• O=C(Nc1ccnc2c1OCC1CC(F)(F)CCN21)c1cc2c(cc1N1CCC3(CC1)CC3)N(S(=O)(=O)CCO)CC2 (stereo not drawn) = > 7.30
• CNc1cc(NS(=O)(=O)CCO)cc(N2CCC3(CC2)CC3)c1C(=O)Nc1ccnc2c1ccn2CC1CC1 = 6.30 to 7.30
• N#Cc1ccc(NC(=O)c2ccc(NS(=O)(=O)CCO)cc2N2CCC(=C(F)F)CC2)c2cc3n(c12)CCOC3 = ≥ 7.30
• O=C(Nc1ccc(F)c2c1nc1n2CCOC1)c1ccc(NS(=O)(=O)CCO)cc1N1CCC(=C(F)F)CC1 = ≥ 7.30
• [2H]C([2H])([2H])OC1c2cc3c(NC(=O)c4ccc(NS(=O)(=O)CCO)cc4N4CCC5(CC4)CC5)cccc3n2CCC1(F)F (stereo not drawn) = 6.30 to 7.30
• O=C(Nc1cc2c(c(N3CCC(F)(F)CC3)n1)CCC2)c1ccc(NS(=O)(=O)CCO)cc1N1CCC2(CC1)CC2 = > 6.30
• O=C(Nc1cccc2c1nc1n2CCOC1)c1ccc(NS(=O)(=O)CCO)cc1N1CCC2(CC1)CC2 = ≥ 7.30
• O=C(Nc1cccc2c1nc1n2C2CCC1CC2)c1ccc(NS(=O)(=O)CCO)cc1N1CCC2(CC1)CC2 = > 6.70

Continue with the next compound.
[in] What value of pIC50 has been reported for the following compound? `O=C(Nc1ccc(=O)n(C2=CCC(F)(F)CC2)n1)c1ccc(NS(=O)(=O)CCO)cc1N1CCC2(CC1)CC2`
[out] > 6.70
